System: PCTK1
Construct: gene CDK16
experimentalConditions: concentration: 1 μM,replicates: in singlicate; n = 1;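 note: KINOMEscan kinase panel screen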
Field: label. Allowed values: T (%Inh < 3%) or F (%Inh >= 3%).

For CCn1c(-c2nonc2N)nc2cncc(Br)c21 , is the recorded %Inh below the cut-off of 3%? T

For NC(=O)Nc1sc(-c2ccc(F)cc2)cc1C(N)=O , is the recorded %Inh below the cut-off of 3%? T

For COC(=O)c1cccc(NC(=O)NC2CCN(c3ccnc(Nc4cc(OC)c(OC)c(OC)c4)n3)C2)c1 (centres unmarked) , is the recorded %Inh below the cut-off of 3%? T

For Cc1cccc2c(-c3ccncc3)c(-c3ccc(F)cc3)nn12.Cl , is the recorded %Inh below the cut-off of 3%? T

For Cl.Cl.NC[C@H](CC1CCCCC1)NC(=O)c1ccc(-c2ccnc3[nH]ccc23)s1 , is the recorded %Inh below the cut-off of 3%? F

Continuing:
For CN1CCN(CCCNc2nccc(-c3c(-c4ccc(F)cc4)nn4cc(C(N)=O)ccc34)n2)CC1 , is the recorded %Inh below the cut-off of 3%? F

For Cc1nnc(-c2ccc3occ(-c4ccc(S(C)=O)cc4)c3n2)o1 (centres unmarked) , is the recorded %Inh below the cut-off of 3%? T

For CC(C)c1nc(-c2cccc(NS(=O)(=O)c3ccccc3)c2)c(-c2ccnc(Nc3ccc4c(c3)CN(C)CC4)n2)s1 , is the recorded %Inh below the cut-off of 3%? F

For CS(=O)c1ccc(-c2coc3ccc(-c4n[nH]c(=O)o4)cc23)cc1 (centres unmarked) , is the recorded %Inh below the cut-off of 3%? F

For CS(=O)(=O)c1cccc(CNc2nc(Nc3ccc4c(c3)[C@@H]3C[C@@H]4CNC3=O)ncc2C(F)(F)F)c1 , is the recorded %Inh below the cut-off of 3%? T

For Cc1cccc(-c2nc(Nc3ccncc3)c3sccc3n2)n1 , is the recorded %Inh below the cut-off of 3%? F

====

As shown below, each of these molecules has a reported %Inh value.
Test system: ULK3
experimentalConditions: concentration: 1 μM,replicates: in singlicate; n = 1

Below: 2 molecules and their reported %Inh.
Identify measured %Inh corresponding to CCn1c(-c2nonc2N)nc2cncc(CNC3CCNCC3)c21.Cl 6%

Identify measured %Inh corresponding to Nc1nccc(-c2ccc3c(N)n[nH]c3c2)n1 4%

From here, focus on the item given below.
Identify measured %Inh corresponding to N#Cc1cccc(C(=O)NC2CCN(c3ccnc(Nc4ccc(F)cc4)n3)C2)c1 (stereo not drawn) 0%

====

Tested on: TNIK
experimentalConditions: concentration: 1 μM,replicates: in singlicate; n = 1
experimentalReadout: %Inh

Below: 5 compounds and their reported %Inh.
Identify measured %Inh corresponding to O=C(NOCC1CC1)c1cc(Br)c(F)c(F)c1Nc1ccc(I)cc1Cl 12%

Identify measured %Inh corresponding to CCN1CCN(CCCC(=O)Nc2n[nH]c3nc(-c4ccc(O)cc4)c(Br)cc23)CC1 [SB-731579] 7%

Identify measured %Inh corresponding to CCOC(=O)N1CCC(n2cnc(-c3ccc(F)cc3)c2-c2ccnc(N)n2)CC1 [SB-219952] 32%

Identify measured %Inh corresponding to Cc1ccn2nc(-c3ccc(F)cc3)c(-c3ccncc3)c2c1.Cl [GW457859] 58%

Identify measured %Inh corresponding to CS(=O)(=O)c1cccc(CNc2nc(Nc3ccc4c(c3)[C@@H]3C[C@@H]4CNC3=O)ncc2C(F)(F)F)c1 88%

Continuing:
Identify measured %Inh corresponding to CS(=O)c1ccc(-c2coc3ccc(-c4n[nH]c(=O)o4)cc23)cc1 (stereo not shown) 0%

Identify measured %Inh corresponding to Cl.Nc1n[nH]c2cc(-c3ccccn3)ccc12 [GSK2189892] 5%

Identify measured %Inh corresponding to FC(F)(F)c1cc(Br)cc(Nc2nccc(-c3cnn4ncccc34)n2)c1 [GW810578] 0%

Identify measured %Inh corresponding to COC(=O)c1cccc(NC(=O)NC2CCN(c3ccnc(NCc4ccc(F)cc4)n3)CC2)c1 [GSK1379860] 0%

Identify measured %Inh corresponding to Cc1n[nH]c2cc(Nc3ccnc(Nc4cccc(CN5CCOCC5)c4)n3)ccc12 [GW682569] 25%

Identify measured %Inh corresponding to OCCn1cc(-c2cnc3nnn(Cc4ccc5ncccc5c4)c3n2)cn1 0%

Identify measured %Inh corresponding to CC(C)c1nc(-c2cccc(NS(=O)(=O)c3ccccc3)c2)c(-c2ccnc(Nc3ccc4c(c3)CN(C)CC4)n2)s1 [GSK1649598] 93.7%

Identify measured %Inh corresponding to Cl.c1ccc(Oc2ccc(Nc3ccnc4cc(-c5ccc(CN6CCNCC6)o5)ccc34)cc2)nc1 [GW567142] 0%

Identify measured %Inh corresponding to COc1cccc(OC)c1C(=O)Nc1cccc(-c2nn3ccccc3c2-c2ccnc(Nc3cccc(F)c3)n2)c1 [GSK361065] 6%

Identify measured %Inh corresponding to CC(=O)Nc1ccc(-c2cc3ncnc(SCC(=O)O)c3s2)cc1 16%

Identify measured %Inh corresponding to Nc1nccc(-c2ccc3c(N)n[nH]c3c2)n1 [GSK1034945] 2%

Identify measured %Inh corresponding to CCn1c(-c2nonc2N)nc2cncc(CNC3CCNCC3)c21.Cl [SB-747651] 0%

Identify measured %Inh corresponding to C[C@@H](Oc1cc(-n2cnc3cc(-c4ccncc4)ccc32)sc1C(N)=O)c1ccccc1Cl [GSK479719] 11%

Identify measured %Inh corresponding to O=c1[nH]cc(-c2ccc(O)cc2)c2sc(-c3ccncc3)cc12 [GSK1033723] 4%
